# assay-system: Prostaglandin G/H synthase 1 (Homo sapiens, UniProt P23219)
# Sequence (P23219 whole entry): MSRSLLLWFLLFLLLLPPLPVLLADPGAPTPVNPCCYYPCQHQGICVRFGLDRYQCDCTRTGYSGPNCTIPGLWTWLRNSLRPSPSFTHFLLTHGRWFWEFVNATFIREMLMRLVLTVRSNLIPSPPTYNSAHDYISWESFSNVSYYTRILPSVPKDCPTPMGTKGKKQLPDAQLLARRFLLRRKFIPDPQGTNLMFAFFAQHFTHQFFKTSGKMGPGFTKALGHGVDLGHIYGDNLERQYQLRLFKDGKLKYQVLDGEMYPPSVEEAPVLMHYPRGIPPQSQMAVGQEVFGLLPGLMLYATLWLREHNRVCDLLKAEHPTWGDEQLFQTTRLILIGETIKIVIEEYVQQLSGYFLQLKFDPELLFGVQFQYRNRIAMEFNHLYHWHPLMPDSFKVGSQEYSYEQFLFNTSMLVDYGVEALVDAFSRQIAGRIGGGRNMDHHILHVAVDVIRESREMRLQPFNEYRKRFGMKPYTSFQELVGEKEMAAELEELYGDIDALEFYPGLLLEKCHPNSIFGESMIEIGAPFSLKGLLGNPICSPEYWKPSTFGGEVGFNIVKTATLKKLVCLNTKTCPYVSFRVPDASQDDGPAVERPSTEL
# assay-name: Inhibition of human Prostaglandin G/H synthase 1 at 1 ug/mL expressed as mean percent inhibition of control PGE-2 production
quantity-kind: inhibition (%)
// return numeric value only (unit: %, not printed)

These solved cases illustrate the format of a correct answer.
>  <compound>
CN1C(O)=C(C(=O)Nc2ccc(Cl)cc2)c2cc3ccccc3cc2S1(=O)=O

>  <assay-system>
Prostaglandin G/H synthase 1 (Homo sapiens, UniProt P23219)

>  <inhibition [%]>
100

$$$$
>  <compound>
CC1Sc2ccc(Cl)cc2C(O)=C1C(=O)Nc1ccccn1 (configuration not stated)

>  <assay-system>
Prostaglandin G/H synthase 1 (Homo sapiens, UniProt P23219)

>  <inhibition [%]>
25

$$$$

The measured inhibition associated with Cc1cc2c(s1)C(C(=O)Nc1ccc(Cl)cc1)=C(O)N(C)S2(=O)=O reads 80

// COc1ccc2c(c1)S(=O)(=O)N(C)C(C(=O)Nc1ccccn1)=C2O : inhibition value = 9

inhibition in this record for Cc1cnc(NC(=O)C2=C(O)c3sc4cc(Cl)ccc4c3S(=O)(=O)N2C)s1 : 100

* * *

# assay-system: Prostaglandin G/H synthase 1 (Homo sapiens, UniProt P23219)
# assay-name: Inhibition of human Prostaglandin G/H synthase 1 at 10 ug/mL expressed as mean percent inhibition of control PGE-2 production
Criterion: inhibition meeting or surpassing 50%. Met: condition met. Not met: condition not met.

>  <line-notation>
Cc1cnc(NC(=O)C2=C(O)c3cc(Cl)ccc3S(=O)(=O)N2C)s1

>  <class-label>
condition met

$$$$
>  <line-notation>
CN1C(O)=C(C(=O)Nc2ccc(Br)cc2)c2ccc(Cl)cc2S1(=O)=O

>  <class-label>
condition met

$$$$

Q: Kindly determine if inhibition recorded for O=C(Nc1cccc(Cl)c1)C1=C(O)c2cc(Cl)ccc2SC1 is above or exactly 50%.
A: condition met

Q: Please check the record Cc1cc2c(o1)C(O)=C(C(=O)Nc1ncc(C)s1)N(C)S2(=O)=O and state if its inhibition is at or above 50%.
A: condition not met

* * *

# assay-system: Prostaglandin G/H synthase 1 (Homo sapiens, UniProt P23219)
# assay-name: Inhibition of human Prostaglandin G/H synthase 1 at 1 ug/mL expressed as mean percent inhibition of control PGE-2 production
Below, each entry is listed alongside its reported inhibition.
Record the value in %, omitting the unit from your answer.

These solved cases illustrate the format of a correct answer.
>  <compound>
CN1C(C(=O)Nc2nc(C(F)(F)F)cs2)=C(O)c2ccccc2S1(=O)=O

>  <inhibition / %>
19

$$$$
>  <compound>
Cc1cnc(NC(=O)C2=C(O)c3cc(Cl)ccc3SC2C)s1 (stereo not given)

>  <inhibition / %>
20

$$$$
>  <compound>
Cc1cc(NC(=O)C2=C(O)c3ccccc3S(=O)(=O)N2C)no1

>  <inhibition / %>
7

$$$$
>  <compound>
Cc1cnc(NC(=O)C2=C(O)c3ccc4ccccc4c3S(=O)(=O)N2C)s1

>  <inhibition / %>
100

$$$$
>  <compound>
CN1C(C(=O)Nc2nccs2)=C(O)c2ccc3ccccc3c2S1(=O)=O

>  <inhibition / %>
100

$$$$
>  <compound>
CN1C(=O)/C(=C(/O)Nc2ccc(Cl)cc2Cl)c2cc(Cl)ccc2C1=O

>  <inhibition / %>
93

$$$$

Entry CN1C(C(=O)Nc2ccccn2)=C(O)c2ccc(F)cc2S1(=O)=O , Prostaglandin G/H synthase 1 (Homo sapiens, UniProt P23219) data, inhibition value: 26

# Cc1cc2c(s1)S(=O)(=O)N(C)C(C(=O)Nc1nccs1)=C2O with Prostaglandin G/H synthase 1 (Homo sapiens, UniProt P23219): inhibition is 5

Param item: Cc1cnc(NC(=O)C2=C(O)c3cc(Cl)ccc3S(=O)(=O)N2C)s1 ; param system: Prostaglandin G/H synthase 1 (Homo sapiens, UniProt P23219); output inhibition: 26

Recorded inhibition for O=C(Nc1cccc(Cl)c1)C1=C(O)c2cc(Cl)ccc2S(=O)(=O)C1 on Prostaglandin G/H synthase 1 (Homo sapiens, UniProt P23219) was 64

* * *

# assay-system: Prostaglandin G/H synthase 1 (Homo sapiens)
# assay-name: Inhibition of human Prostaglandin G/H synthase 1 at 1 ug/mL expressed as mean percent inhibition of control PGE-2 production
quantity-kind: inhibition (%)
Provide the reading as a plain figure in %.

Use the examples below as a reference point.
>  <line-notation>
CN1C(O)=C(C(=O)Nc2ccc(Cl)cc2Cl)c2cc(Cl)ccc2S1(=O)=O

>  <unit-abbrev>
%

>  <observed>
100

$$$$
>  <line-notation>
CC1(C)Sc2ccccc2C(O)=C1C(=O)Nc1cccc(Cl)c1

>  <unit-abbrev>
%

>  <observed>
20

$$$$
>  <line-notation>
CN1C(O)=C(C(=O)Nc2ccc(Cl)cc2Cl)c2c(ccc(Cl)c2Cl)S1(=O)=O

>  <unit-abbrev>
%

>  <observed>
55

$$$$
>  <line-notation>
CN1C(=O)/C(=C(/O)Nc2ccccc2)c2cc(Cl)ccc2C1=O

>  <unit-abbrev>
%

>  <observed>
42

$$$$
>  <line-notation>
CN1C(c2nc3ccccc3[nH]2)=C(O)c2ccccc2S1(=O)=O

>  <unit-abbrev>
%

>  <observed>
4

$$$$

Record summary for CN1C(C(=O)Nc2nccs2)=C(O)c2c(ccc3ccccc23)S1(=O)=O : reported inhibition = 15

// inhibition value for CN1C(C(=O)Nc2nccs2)=C(O)c2c(c3cc(Cl)ccc3n2C)S1(=O)=O : 80

Field inhibition (entry CN1C(=O)/C(=C(/O)Nc2ccc(Cl)cc2)c2ccccc2C1=O ) reads 77

* * *

# assay-system: Prostaglandin G/H synthase 1 (Homo sapiens)
# assay-name: Inhibition of human Prostaglandin G/H synthase 1 at 1 ug/mL expressed as mean percent inhibition of control PGE-2 production
quantity-kind: inhibition
Give your result as the value with the unit written after it.

Here's what some known entries look like.
>  <line-notation>
CN1C(C(=O)Nc2ccccc2)=C(O)c2cc(F)ccc2S1(=O)=O

>  <quantity-kind>
inhibition

>  <observed>
38%

$$$$
>  <line-notation>
CN1C(C(=O)Nc2ccccn2)=C(O)c2c(c3cc(Cl)ccc3n2C)S1(=O)=O

>  <quantity-kind>
inhibition

>  <observed>
28%

$$$$
>  <line-notation>
CN1C(O)=C(C(=O)Nc2ccc(Br)cc2)c2ccc(Cl)cc2S1(=O)=O

>  <quantity-kind>
inhibition

>  <observed>
89%

$$$$
>  <line-notation>
CCn1c2c(c3ccccc31)S(=O)(=O)N(C)C(C(=O)Nc1nccs1)=C2O

>  <quantity-kind>
inhibition

>  <observed>
-1%

$$$$
>  <line-notation>
CCN1C(C(=O)Nc2ncc(C)s2)=C(O)c2ccccc2S1(=O)=O

>  <quantity-kind>
inhibition

>  <observed>
-6%

$$$$
>  <line-notation>
Cc1ccc2c(c1)C(O)=C(C(=O)Nc1ncc(C)s1)N(C)S2(=O)=O

>  <quantity-kind>
inhibition

>  <observed>
14%

$$$$

Notebook: O=C(Nc1ccc(Cl)cc1Cl)C1=C(O)N(Cc2ccccc2)S(=O)(=O)c2ccc(Cl)cc21 , inhibition read as 54%

Reported inhibition of CN1C(O)=C(C(=O)Nc2ccc(Br)cc2)c2cc(Cl)ccc2S1(=O)=O : 97%

The compound identified as COc1ccc2c(c1)S(=O)(=O)N(C)C(C(=O)Nc1ncc(C)s1)=C2O registered its inhibition at 16%

Recorded result, Cc1ccc2c(c1)/C(=C(\O)Nc1ccccn1)C(=O)N(C)C2=O , inhibition: 62%

* * *

# assay-system: Prostaglandin G/H synthase 1 (Homo sapiens, UniProt P23219)
# assay-name: Inhibition of human Prostaglandin G/H synthase 1 at 1 ug/mL expressed as mean percent inhibition of control PGE-2 production
quantity-kind: inhibition (%)
Enter your answer as a number in %; do not include the unit.

Example cases with answers are listed next.
>  <compound>
CN1C(O)=C(C(=O)Nc2nccs2)c2cc3ccccc3cc2S1(=O)=O

>  <inhibition / %>
11

$$$$
>  <compound>
CN1C(C(=O)c2c[nH]c3ccccc23)=C(O)c2ccccc2S1(=O)=O

>  <inhibition / %>
3

$$$$
>  <compound>
Cc1ccc2c(c1)/C(=C(\O)Nc1ccc(Cl)cc1Cl)C(=O)N(C)C2=O

>  <inhibition / %>
100

$$$$
>  <compound>
Cc1coc(NC(=O)C2=C(O)c3ccccc3S(=O)(=O)N2C)n1

>  <inhibition / %>
5

$$$$
>  <compound>
CN1C(O)=C(C(=O)Nc2ccccn2)c2ccccc2S1(=O)=O

>  <inhibition / %>
17

$$$$
>  <compound>
Cc1ccc2c(c1)/C(=C(\O)Nc1ncc(C)s1)C(=O)N(C)C2=O

>  <inhibition / %>
52

$$$$
>  <compound>
Cc1ccc2c(c1)/C(=C(\O)Nc1ccccc1)C(=O)N(C)C2=O

>  <inhibition / %>
72

$$$$
>  <compound>
O=C(Nc1ccccn1)C1=C(O)c2ccccc2SC1

>  <inhibition / %>
34

$$$$
>  <compound>
CC1Sc2ccc(Cl)cc2C(O)=C1C(=O)Nc1cccc(Cl)c1 (configuration not stated)

>  <inhibition / %>
10

$$$$
>  <compound>
Cc1ccc2c(c1)C(O)=C(C(=O)Nc1ccccn1)N(C)S2(=O)=O

>  <inhibition / %>
5

$$$$

For Cc1cnc(N/C(O)=C2\C(=O)N(Cc3ccccc3)C(=O)c3ccc(Cl)cc32)s1 the compound record lists inhibition as 35

Record summary for Cc1nnc(NC(=O)C2=C(O)c3ccccc3S(=O)(=O)N2C)s1 : reported inhibition = 18

Summary for this compound, CN1C(C(=O)Nc2ccccn2)=C(O)c2cc(F)ccc2S1(=O)=O : inhibition is 11

Entry under test: CCN1C(O)=C(C(=O)Nc2ccc(Cl)cc2Cl)c2cc(Cl)ccc2S1(=O)=O . Its inhibition was 85

The value of inhibition measured for the compound CCn1c2c(c3ccccc31)S(=O)(=O)N(C)C(C(=O)Nc1ccccn1)=C2O turned out to be -1

For COc1ccc2c(c1)c1c(n2C)C(O)=C(C(=O)Nc2nccs2)N(C)S1(=O)=O the compound record lists inhibition as 33

Lab note: measured inhibition of O=C(Nc1cccc(Cl)c1)C1=C(O)c2ccccc2[S+]([O-])C1 (configuration not stated) was -2

Lab book: inhibition of CN1C(C(=O)Nc2nccs2)=C(O)c2sc3cc(Cl)ccc3c2S1(=O)=O noted as 100

The compound listed as Cc1ccc2c(c1)S(=O)(=O)N(C)C(O)=C2C(=O)Nc1ccccc1Cl has a reported inhibition of 98

# inhibition of CN1C(O)=C(C(=O)Nc2ccccn2)c2ccc(Cl)cc2S1(=O)=O = 41

// sample Cc1cnc(NC(=O)C2=C(O)c3cc(Cl)ccc3SC2)s1 , its inhibition was 21

Kindly note the recorded inhibition for CN1C(C(=O)Nc2ccccn2)=C(O)c2c(c3ccccc3n2C)S1(=O)=O , which is 14

meta.source: ChEMBL document CHEMBL1129978
